- Test system: Huh-7 cell line
- Test Details: Huh-7 cell confluency by alamarBlue assay during hepatic-stage test
- Format: cell-based
- Setup Conditions: human, 46 h, 10 µM, pH 7
Recorded Metric: CELL CONFLUENCY Ø screening
Reply with just the number.

Reported CELL CONFLUENCY Ø screening of CCC(=O)O[C@@H]1CN2Cc3c(cc4c(c3OC)OCO4)[C@@]13C=C[C@H](OC)C[C@@H]23 [28b, 11-O-Propionylambelline] : 102.4

Per the record, COc1cc(C(=O)O[C@@H]2CN3Cc4c(cc5c(c4OC)OCO5)[C@@]24C=C[C@H](OC)C[C@@H]34)cc(OC)c1OC [28n, 11-O-(3,4,5-Trimethoxybenzoyl)ambelline] has CELL CONFLUENCY Ø screening of 68.02

====

- Tested on: Huh-7 cell line
- Test Details: Huh-7 cell confluency by alamarBlue assay during hepatic-stage test
- Assay type: cell-based
- Setup Conditions: at 1 μM; DMSO = 100; in % (unit assumed)
Recorded Metric: CELL CONFLUENCY Ø screening

[
  {
    "Molecule": "COC1C=CC23c4cc5c(cc4CN(CC2OC(=O)C(C)C)C3C1)OCO5 (stereo not shown) [29b, 11-O-isobutanoylhaemanthamine]",
    "CELL CONFLUENCY Ø screening": 106.7
  },
  {
    "Molecule": "COc1cccc(C(=O)OC2CN3Cc4cc5c(cc4C24C=CC(OC)CC34)OCO5)c1 (stereo not shown) [29f, 11-O-(3-methoxybenzoyl)haemanthamine]",
    "CELL CONFLUENCY Ø screening": 130.9
  },
  {
    "Molecule": "COC1C=CC23c4cc5c(cc4CN(CC2OC(=O)c2ccc([N+](=O)[O-])cc2)C3C1)OCO5 (stereo not shown) [29k, 11-O-(4-nitrobenzoyl)haemanthamine]",
    "CELL CONFLUENCY Ø screening": 104.8
  },
  {
    "Molecule": "COc1c2c(cc3c1OCO3)[C@]13C=C[C@H](OC)C[C@H]1N(C2)C[C@H]3OC(=O)c1cc(C)cc(C)c1 [28h, 11-O-(3,5-Dimethylbenzoyl)ambelline]",
    "CELL CONFLUENCY Ø screening": 93.78
  },
  {
    "Molecule": "COc1ccc(C(=O)O[C@@H]2CN3Cc4c(cc5c(c4OC)OCO5)[C@@]24C=C[C@H](OC)C[C@@H]34)cc1 [28k, 11-O-(4-Methoxybenzoyl)ambelline]",
    "CELL CONFLUENCY Ø screening": 107.6
  }
]

Item: CCC(=O)OC1CN2Cc3cc4c(cc3C13C=CC(OC)CC23)OCO4 (stereo not shown) [29a, 11-O-propionylhaemanthamine] | CELL CONFLUENCY Ø screening: 95.58

// CELL CONFLUENCY Ø screening lookup, molecule = COc1cccc(C(=O)O[C@@H]2CN3Cc4c(cc5c(c4OC)OCO5)[C@@]24C=C[C@H](OC)C[C@@H]34)c1 [28j, 11-O-(3-Methoxybenzoyl)ambelline] , result: 109.9

====

- Test system: HepG2 cells
- Test Details: Cytotoxicity assessment in vitro (MTT assay)
- Type: cell-based
- Setup Conditions: human, 24 h, 10 µM
Here, each record is paired with measured Ø screening, HepG2 (sheet Graphs) data.
Quick one: just the number, no unit, thanks!

[
  {
    "Compound": "COc1c2c(cc3c1OCO3)[C@]13C=C[C@H](OC)C[C@H]1N(C2)C[C@H]3OC(=O)C(C)C [28c, 11-O-Isobutanoylambelline]",
    "Data Value": 95.38
  },
  {
    "Compound": "CCOc1cc(OCC)cc(C(=O)O[C@@H]2CN3Cc4c(cc5c(c4OC)OCO5)[C@@]24C=C[C@H](OC)C[C@@H]34)c1 [28o, 11-O-(3,5-Diethoxybenzoyl)ambelline]",
    "Data Value": 56.07
  }
]

Next item in the queue.
Bench note, HepG2 cells: COc1c2c(cc3c1OCO3)[C@]13C=C[C@H](OC)C[C@H]1N(C2)C[C@H]3OC(=O)c1ccc([N+](=O)[O-])cc1Cl [28s, 11-O-(2-Chloro-4-nitrobenzoyl)ambelline] , Ø screening, HepG2 (sheet Graphs) reads 53.59

====

- System: Huh-7 cell line
- Test Details: Huh-7 cell confluency by alamarBlue assay during hepatic-stage test
- Format: cell-based
- Setup Conditions: human, 46 h, 10 µM, pH 7
Entries and their CELL CONFLUENCY Ø screening

Below, each entry is followed by its recorded CELL CONFLUENCY Ø screening result.
[
  {
    "Compound": "COc1ccc(C(=O)O[C@@H]2CN3Cc4c(cc5c(c4OC)OCO5)[C@@]24C=C[C@H](OC)C[C@@H]34)cc1OC [28l, 11-O-(3,4-Dimethoxybenzoyl)ambelline]",
    "Data Value": 70.05
  },
  {
    "Compound": "COc1c2c(cc3c1OCO3)[C@]13C=C[C@H](OC)C[C@H]1N(C2)C[C@H]3OC(=O)C(C)C [28c, 11-O-Isobutanoylambelline]",
    "Data Value": 93.64
  },
  {
    "Compound": "COc1ccccc1C(=O)O[C@@H]1CN2Cc3c(cc4c(c3OC)OCO4)[C@@]13C=C[C@H](OC)C[C@@H]23 [28i, 11-O-(2-Methoxybenzoyl)ambelline]",
    "Data Value": 135.7
  },
  {
    "Compound": "COC1C=CC23c4cc5c(cc4CN(CC2OC(=O)c2cccc(C)c2)C3C1)OCO5 (stereo not drawn) [29c, 11-O-(3-methylbenzoyl)haemanthamine]",
    "Data Value": 135.7
  }
]

COC1C=CC23c4cc5c(cc4CN(CC2OC(=O)c2ccc(C)cc2)C3C1)OCO5 (stereo not drawn) [29d, 11-O-(4-methylbenzoyl)haemanthamine] yielded CELL CONFLUENCY Ø screening of 113.7

Entry under test: CCOc1cc(OCC)cc(C(=O)O[C@@H]2CN3Cc4c(cc5c(c4OC)OCO5)[C@@]24C=C[C@H](OC)C[C@@H]34)c1 [28o, 11-O-(3,5-Diethoxybenzoyl)ambelline] . Its CELL CONFLUENCY Ø screening was 52.09

====

- Tested on: HepG2 cells
- Test Details: Cytotoxicity assessment in vitro (MTT assay)
- Format: cell-based
- Setup Conditions: human, 24 h, 10 µM
Recorded Metric: 1. screening of cytotoxic potential, HepG2 cell line
The reply should be a number, written without any unit.

Example results:
[
  {
    "Molecule": "COc1c2c(cc3c1OCO3)[C@]13C=C[C@H](OC)C[C@H]1N(C2)C[C@H]3OC(=O)C(C)C [28c, 11-O-Isobutanoylambelline]",
    "Data Value": 97.78
  },
  {
    "Molecule": "COc1c2c(cc3c1OCO3)[C@]13C=C[C@H](OC)C[C@H]1N(C2)C[C@H]3OC(=O)c1ccccc1 [28e, 11-O-Benzoylambelline]",
    "Data Value": 98.77
  },
  {
    "Molecule": "COc1c2c(cc3c1OCO3)[C@]13C=C[C@H](OC)C[C@H]1N(C2)C[C@H]3OC(=O)c1ccc(C)c([N+](=O)[O-])c1 [28r, 11-O-(4-Methyl-3-nitrobenzoyl)ambelline]",
    "Data Value": 69.43
  },
  {
    "Molecule": "CCCCC(=O)O[C@@H]1CN2Cc3c(cc4c(c3OC)OCO4)[C@@]13C=C[C@H](OC)C[C@@H]23 [28d, 11-O-Pentanoylambelline]",
    "Data Value": 73.78
  },
  {
    "Molecule": "COc1cc(C(=O)O[C@@H]2CN3Cc4c(cc5c(c4OC)OCO5)[C@@]24C=C[C@H](OC)C[C@@H]34)cc(OC)c1OC [28n, 11-O-(3,4,5-Trimethoxybenzoyl)ambelline]",
    "Data Value": 52.2
  }
]

// moving on: another record for 1. screening of cytotoxic potential, HepG2 cell line
Record COc1c2c(cc3c1OCO3)[C@]13C=C[C@H](OC)C[C@H]1N(C2)C[C@H]3OC(=O)c1ccc(Cl)c([N+](=O)[O-])c1 [28t, 11-O-(4-Chloro-3-nitrobenzoyl)ambelline] , field 1. screening of cytotoxic potential, HepG2 cell line: 13.64

====

- Test system: HepG2 cells
- Test Details: Cytotoxicity assessment in vitro (MTT assay)
- Assay type: cell-based
- Setup Conditions: human, 24 h, 10 µM
Recorded Metric: Ø screening, HepG2 (sheet Graphs)

A selection of reference data follows.
[
  {
    "Compound": "COc1cc(OC)cc(C(=O)O[C@@H]2CN3Cc4c(cc5c(c4OC)OCO5)[C@@]24C=C[C@H](OC)C[C@@H]34)c1 [28m, 11-O-(3,5-Dimethoxybenzoyl)ambelline]",
    "Ø screening, HepG2 (sheet Graphs)": 87.46
  },
  {
    "Compound": "COc1c2c(cc3c1OCO3)[C@]13C=C[C@H](OC)C[C@H]1[N@](C2)C[C@H]3OC(C)=O [28a, 11-O-Acetylambelline]",
    "Ø screening, HepG2 (sheet Graphs)": 106.6
  },
  {
    "Compound": "COc1cc(C(=O)O[C@@H]2CN3Cc4c(cc5c(c4OC)OCO5)[C@@]24C=C[C@H](OC)C[C@@H]34)cc(OC)c1OC [28n, 11-O-(3,4,5-Trimethoxybenzoyl)ambelline]",
    "Ø screening, HepG2 (sheet Graphs)": 52.06
  },
  {
    "Compound": "COc1c2c(cc3c1OCO3)[C@]13C=C[C@H](OC)C[C@H]1N(C2)C[C@H]3OC(=O)c1ccc(C)cc1 [28g, 11-O-(4-Methylbenzoyl)ambelline]",
    "Ø screening, HepG2 (sheet Graphs)": 49.96
  },
  {
    "Compound": "CCC(=O)O[C@@H]1CN2Cc3c(cc4c(c3OC)OCO4)[C@@]13C=C[C@H](OC)C[C@@H]23 [28b, 11-O-Propionylambelline]",
    "Ø screening, HepG2 (sheet Graphs)": 58.36
  }
]

Shifting focus to the compound that follows.
Query CCCCC(=O)O[C@@H]1CN2Cc3c(cc4c(c3OC)OCO4)[C@@]13C=C[C@H](OC)C[C@@H]23 [28d, 11-O-Pentanoylambelline] yields Ø screening, HepG2 (sheet Graphs) of 71.26

Where these numbers come from: paper PMC10056443
